System name: T1, dNELF-E (Drosophila, UniProt P92204 1-280)
T1 sequence: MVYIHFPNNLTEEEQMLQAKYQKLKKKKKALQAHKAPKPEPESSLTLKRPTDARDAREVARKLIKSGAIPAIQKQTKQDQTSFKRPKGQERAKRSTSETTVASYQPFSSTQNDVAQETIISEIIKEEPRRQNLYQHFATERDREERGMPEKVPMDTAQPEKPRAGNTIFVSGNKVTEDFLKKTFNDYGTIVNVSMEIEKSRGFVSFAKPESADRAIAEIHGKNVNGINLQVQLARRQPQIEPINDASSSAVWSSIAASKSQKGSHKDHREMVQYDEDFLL
Assay procedure: F-EMSA; 10 mM HEPES-NaOH pH 7.5, 100 mM NaCl, 25 mM KCl, 1 mM MgCl2, 0.02% Tween-20, 0.01% IGEPAL CA-630, 10 µg/ml yeast tRNA; 2 nM RNA, 0-2000 nM protein, 1-2 h, binding temperature not stated; gel 5% acrylamide 0.5X TBE at 4 °C
Condition label: protein: recombinant; tags: N-terminal His6 (pHIS-parallel1); label: 3' fluorescein (5-thiosemicarbazide); hairpin; NBE base-paired
Measurement label: Kd

Q) Give the reported value of Kd for this record: GGCCCCACUGAGGAUGCCCACGGGCGUCCUCAGUGGGGCCA (structured_RNA) [Napt1+hairpin]
A) 810 nM

From: paper PMC3894171
